- System: MDA-MB-468 breast
- Assay Explanation: NCI tumour cell line growth inhibition, 48 h; in the data active = GI50 below about 0.43 µM; inactive = the rest
Just give me one of these, please: class 1 (active), class 0 (inactive)

Could you check what this test reported for CSc1nc(-c2cccc(C)c2)c2cc(-c3ccccc3)n(C)c2n1 ?
class 0

Could you check what this test reported for Cc1ccc(C2=NN(c3ccc(S(N)(=O)=O)cc3)C(c3cn(-c4ccccc4)nc3-c3ccccc3)C2)cc1 (centres undefined) ?
class 0

Could you check what this test reported for Nc1c2ccccc2nc2ccccc12 (tested in a mixture with another compound) ?
class 0

Could you check what this test reported for CN1CCN(CC(=O)N2c3cccc4cccc(c34)N(C(=O)CN3CCN(C)CC3)C2c2cn(-c3ccccc3)nc2-c2cccc([N+](=O)[O-])c2)CC1 ?
class 0

Could you check what this test reported for O=C(O)c1ccccc1Nc1ccc2nnc(-c3ccncc3)n2n1 ?
class 0

Could you check what this test reported for Fc1cccc(-c2[nH]nc3nc(Nc4cccnc4)sc23)c1 ?
class 1

Could you check what this test reported for CCN(CC)CC[n+]1cc2cc(OC)c(OC)cc2c2ccc3cc4c(cc3c21)OCO4 ?
class 1

Could you check what this test reported for COc1cc(N2CCC(N3CCN(C)CC3)CC2)ccc1Nc1ncc(Cl)c(Nc2ccccc2S(=O)(=O)C(C)C)n1 ?
class 0

Could you check what this test reported for Oc1c(CN2CCN(c3ccccc3F)CC2)cc(Br)c2cccnc12 ?
class 0

====

- Tested on: MDA-MB-468 breast
- Assay Explanation: NCI tumour cell line growth inhibition, 48 h
Lab note: compare TGI against 3 µM. Equal or greater, write t. Smaller, write f.

API: above_or_equal(metric=TGI, cutoff=3 µM) for item Clc1ccc2c(NCCNc3nc(N4CCCC4)nc4ccccc34)ccnc2c1
t

API: above_or_equal(metric=TGI, cutoff=3 µM) for item O=[N+]([O-])c1cc2c(c([N+](=O)[O-])c1)Nc1ccccc1O2
t

API: above_or_equal(metric=TGI, cutoff=3 µM) for item O=C(NCCCCCCNC(=O)OCc1ccc2c(Cl)cc(Cl)c(O)c2n1)OCc1ccc2c(Cl)cc(Cl)c(O)c2n1
f

API: above_or_equal(metric=TGI, cutoff=3 µM) for item CCN(CC)c1ccnc(CNCCSC(c2ccccc2)(c2ccccc2)c2ccc(OC)cc2)c1
t

API: above_or_equal(metric=TGI, cutoff=3 µM) for item C[C@@H]1OCC2(CCN(c3cnc(Sc4ccnc(N)c4Cl)c(N)n3)CC2)[C@@H]1N
t

API: above_or_equal(metric=TGI, cutoff=3 µM) for item COc1cc(N2CCC(N3CCN(C)CC3)CC2)ccc1Nc1ncc(Cl)c(Nc2ccccc2S(=O)(=O)C(C)C)n1
f

API: above_or_equal(metric=TGI, cutoff=3 µM) for item COc1ccc2nc(-c3cc4c([nH]c5ccccc54)c(-c4ccc(F)c(F)c4)n3)[nH]c2c1
t

API: above_or_equal(metric=TGI, cutoff=3 µM) for item CC(CN)[C@@H]1CC[C@]2(CO)CC[C@]3(C)[C@H](CC[C@@H]4[C@@]5(C)CCC(N)C(C)(C)[C@@H]5CC[C@]43C)[C@@H]12 (stereo partly drawn)
t

====

- Tested on: MDA-MB-468 breast
- Assay Explanation: NCI tumour cell line growth inhibition, 48 h
I'd appreciate it if you could supply TGI values for the items below.
Lab book: enter the figure in µM, no units written.

Looking for the measured TGI of CN1CCN(CC(=O)N2c3cccc4cccc(c34)N(C(=O)CN3CCN(C)CC3)C2c2cn(-c3ccccc3)nc2-c2cccc([N+](=O)[O-])c2)CC1 , can you help?
3.06

Looking for the measured TGI of C=C1C(=O)O[C@H]2[C@H]1CC/C(COC(=O)NCc1cc(OC)cc(OC)c1)=C\CC[C@@]1(C)O[C@@H]21 , can you help?
2.33

Looking for the measured TGI of Oc1c(I)cc(I)cc1CN(Cc1ccccn1)Cc1ccccn1 , can you help?
7.28

Looking for the measured TGI of Oc1c(CN2CCN(c3ccccc3F)CC2)cc(Br)c2cccnc12 , can you help?
6.84

Looking for the measured TGI of CCN(CC)CC[n+]1cc2cc(OC)c(OC)cc2c2ccc3cc4c(cc3c21)OCO4 , can you help?
1.09

Looking for the measured TGI of COc1cc(C)c(NC(=O)CN(C)C)cc1Nc1nc(Nc2cccc(F)c2C(N)=O)c2cc[nH]c2n1 , can you help?
1.21

Data provenance is PubChem BioAssay (NCI).
